Cited source for all entries: the supplement of paper PMC11061612

system: NCI-H929 (Plasma Cell Myeloma); test: combination Emax (second highest fraction inhibited in the dose matrix, 72 h); higher = more inhibition; extreme values may be limits of the assay
Class t: combination Emax at least 0.7. Class f: combination Emax below 0.7.

INSERT INTO assay_data (compound, classname) VALUES
  ('C=CCn1c(=O)c2cnc(Nc3ccc(N4CCN(C)CC4)cc3)nc2n1-c1cccc(C(C)(C)O)n1 [AZD1775] + O=C(c1cc(Cc2n[nH]c(=O)c3ccccc23)ccc1F)N1CCN(C(=O)C2CC2)CC1 [Olaparib] (first compound max 1 µM, partner max 10 µM)', 'f'),
  ('O=C(c1cc(Cc2n[nH]c(=O)c3ccccc23)ccc1F)N1CCN(C(=O)C2CC2)CC1 [Olaparib] + CN(CC[C@H](CSC1=CC=CC=C1)NC2=C(C=C(C=C2)S(=O)(=O)NC(=O)C3=CC=C(C=C3)N4CCC(CC4)[C@H](C5=CC=CC=C5C6=CC=C(C=C6)Cl)O)S(=O)(=O)C(F)(F)F)CCO [AZD4320] (first compound max 10 µM, 7x7, partner max 1 µM)', 'f'),
  ('COc1cc2ncnc(Nc3ccc(F)c(Cl)c3)c2cc1OCCCN1CCOCC1 [Gefitinib] + CC(C)n1c(=O)n(C)c2cnc3cc(F)c(-c4ccc(OCCCN5CCCCC5)nc4)cc3c21 [AZD1390] (first compound max 10 µM, 7x7, partner max 0.3 µM)', 'f');

hey, is combination Emax for this one >= 0.7? CC1(C)CCC(CN2CCN(c3ccc(C(=O)NS(=O)(=O)c4ccc(NCC5CCOCC5)c([N+](=O)[O-])c4)c(Oc4cnc5[nH]ccc5c4)c3)CC2)=C(c2ccc(Cl)cc2)C1 [Venetoclax] + COc1cc(Nc2ncc3c(n2)-c2ccc(Cl)cc2C(c2c(F)cccc2OC)=NC3)ccc1C(=O)O [Alisertib] (first compound max 1 µM, 7x7, partner max 10 µM)
f

And for CN(CCO)CC[C@H](CSc1ccccc1)Nc1ccc(S(=O)(=O)NC(=O)c2ccc(N3CCC([C@@H](O)c4ccccc4-c4ccc(Cl)cc4)CC3)cc2)cc1S(=O)(=O)C(F)(F)F [AZD4320] + C[C@@H](Nc1cc(F)cc(F)c1)c1cc(C(=O)N(C)C)cc2c(=O)cc(N3CCOCC3)oc12 [AZD8186] (first compound max 1 µM, 7x7, partner max 3 µM) ?
t

And for Cc1cc2ncnn2cc1Nc1ncc2c(n1)n(C1CCOCC1)c(=O)n2C [AZD7648] + CN(C)CCCOc1ccc(-c2ccc3ncc4c(c3c2)n(C2CCOCC2)c(=O)n4C)cn1 [AZD0156] (first compound max 10 µM, 7x7, partner max 1 µM) ?
t
